Hey, just so you know, these numbers are from ChEMBL document CHEMBL4138253.

ASSAY_EXPLANATION: Drug level in C57BL/6 mouse plasma at 2 mg/kg, po administered as single cassette dose via gavage measured at 3 hrs post dose by LC-MS/MS analysis
Type: ADME, organism-based
This listing pairs compounds with measured concentration at 3 h.

- CHEMICAL_STRING: "CC[C@H]1[C@@H](O)[C@@H]2[C@H](CC[C@]3(C)[C@@H]([C@H](C)CCC(=O)O)CC[C@@H]23)[C@@]2(C)CC[C@@H](O)C[C@@H]12"
  concentration at 3 h: "64 nM"
- CHEMICAL_STRING: "CC[C@H]1[C@@H](O)[C@@H]2[C@H](CC[C@]3(C)[C@@H]([C@H](C)CCNC(=O)C(=O)O)CC[C@@H]23)[C@@]2(C)CC[C@@H](O)C[C@@H]12"
  concentration at 3 h: "38 nM"
- CHEMICAL_STRING: "CC[C@H]1[C@@H](O)[C@@H]2[C@H](CC[C@]3(C)[C@@H]([C@H](C)CCC(=O)NS(C)(=O)=O)CC[C@@H]23)[C@@]2(C)CC[C@@H](O)C[C@@H]12"
  concentration at 3 h: "15 nM"
- CHEMICAL_STRING: "CC[C@H]1[C@@H](O)[C@@H]2[C@H](CC[C@]3(C)[C@@H]([C@H](C)CCc4nnn[nH]4)CC[C@@H]23)[C@@]2(C)CC[C@@H](O)C[C@@H]12"
  concentration at 3 h: "19 nM"
- CHEMICAL_STRING: "CC[C@H]1[C@@H](O)[C@@H]2[C@H](CC[C@]3(C)[C@@H]([C@H](C)CCc4cc(O)no4)CC[C@@H]23)[C@@]2(C)CC[C@@H](O)C[C@@H]12"
  concentration at 3 h: "6 nM"
